Biological target: N-arachidonyl glycine receptor (Homo sapiens, UniProt Q14330)
Assay: Agonist activity at human GPR18 expressed in CHO cells assessed as activation by measuring beta-arrestin2 recruitment incubated for 90 mins by luminescence based assay
Format: functional, cell-based
pEC50: −log10 of the molar value.
Is pEC50 at least 7? Then Criterion met. If not, Criterion not met.

See these solved cases before continuing.
Cn1c(=O)c2c(nc(NCCc3c[nH]c4ccccc34)n2CCc2ccccc2)n(C)c1=O = Criterion not met
CNS(=O)(=O)c1ccc(Cn2c(NCCc3c[nH]c4ccccc34)nc3c2c(=O)n(C)c(=O)n3C)cc1 = Criterion not met
Cn1c(=O)c2c(nc(NCCc3c[nH]c4ccccc34)n2Cc2cccc(Br)c2)n(C)c1=O = Criterion met
CC(=O)Nc1ccc(Cn2c(NCCc3c[nH]c4ccccc34)nc3c2c(=O)n(C)c(=O)n3C)cc1 = Criterion not met
CCn1c(NCCc2c[nH]c3ccccc23)nc2c1c(=O)n(C)c(=O)n2C = Criterion not met

pEC50 >= 7 for "Cn1c(=O)c2c(nc(NCCc3c[nH]c4ccccc34)n2Cc2ccc(Cl)cc2)n(C)c1=O" ? Criterion met

* * *

Recorded pEC50 by entry
Molecular target: N-arachidonyl glycine receptor (Mus musculus)
Sequence (Q8K1Z6 whole entry): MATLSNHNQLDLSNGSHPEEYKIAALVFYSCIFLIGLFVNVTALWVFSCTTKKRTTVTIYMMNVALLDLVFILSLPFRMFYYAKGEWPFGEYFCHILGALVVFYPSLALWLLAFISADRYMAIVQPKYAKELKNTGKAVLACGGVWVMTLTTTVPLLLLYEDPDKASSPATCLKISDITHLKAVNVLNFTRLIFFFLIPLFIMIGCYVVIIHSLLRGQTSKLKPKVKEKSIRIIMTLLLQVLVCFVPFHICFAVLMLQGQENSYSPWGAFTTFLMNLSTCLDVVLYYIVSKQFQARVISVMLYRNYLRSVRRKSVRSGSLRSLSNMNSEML
The value called pEC50 is obtained by taking minus log10 of the concentration in mol/L.

CCn1c(=O)n(C)c(=O)c2c1nc(NCCc1c[nH]c3ccccc13)n2Cc1ccc(Cl)cc1 = 6.53
Cn1c(=O)c2c(nc(NCCc3c[nH]c4ccccc34)n2Cc2ccc(Br)cc2)n(C)c1=O = 7.24

Let us examine a further case.
Test item "CCCn1c(NCCc2c[nH]c3ccccc23)nc2c1c(=O)n(C)c(=O)n2C" ; N-arachidonyl glycine receptor (Mus musculus); reported pEC50 was 6.52

* * *

So I've got EC50 readings for N-arachidonyl glycine receptor (Mus musculus), take a look.

Value of measured EC50 for the entry "Cn1c(=O)c2c(nc(NCCc3c[nH]c4ccccc34)n2Cc2ccc(Cl)cc2)n(Cc2ccccc2)c1=O" : 393 nM

Value of measured EC50 for the entry "Cn1c(=O)c2c(nc(NCCc3c[nH]c4ccccc34)n2CCOc2ccccc2)n(C)c1=O" : 334 nM

Value of measured EC50 for the entry "Cn1c(=O)c2c(nc(NCCc3c[nH]c4ccccc34)n2Cc2c(Cl)cccc2Cl)n(C)c1=O" : 559 nM

* * *

Target: N-arachidonyl glycine receptor (Homo sapiens)
Sequence (Q14330 whole entry): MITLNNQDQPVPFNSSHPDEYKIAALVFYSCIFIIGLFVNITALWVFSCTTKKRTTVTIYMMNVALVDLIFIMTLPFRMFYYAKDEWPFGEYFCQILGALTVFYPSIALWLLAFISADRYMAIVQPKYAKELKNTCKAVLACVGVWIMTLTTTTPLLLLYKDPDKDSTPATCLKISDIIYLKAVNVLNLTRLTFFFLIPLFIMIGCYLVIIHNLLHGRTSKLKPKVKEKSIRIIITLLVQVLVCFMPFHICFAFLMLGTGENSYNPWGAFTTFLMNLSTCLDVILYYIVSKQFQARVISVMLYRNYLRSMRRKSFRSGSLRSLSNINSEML
Test: Agonist activity at human GPR18 expressed in CHO cells assessed as activation by measuring beta-arrestin2 recruitment incubated for 90 mins by luminescence based assay
Format: functional, cell-based
Recorded EC50 by entry
Value expressed in nM; do not type the unit.

C=CCn1c(NCCc2c[nH]c3ccccc23)nc2c1c(=O)n(C)c(=O)n2C = 169
C#CCn1c(NCCc2c[nH]c3ccccc23)nc2c1c(=O)n(C)c(=O)n2C = 247
Cn1c(=O)c2c(nc(NCCc3c[nH]c4ccccc34)n2Cc2ccccc2)n(C)c1=O = 149
Cn1c(=O)c2c(nc(NCCc3c[nH]c4ccccc34)n2Cc2ccc(Cl)cc2)n(CCF)c1=O = 351
CCCCn1c(NCCc2c[nH]c3ccccc23)nc2c1c(=O)n(C)c(=O)n2C = 151

Value of measured EC50 for the entry "Cn1c(=O)c2c(nc(NCCc3c[nH]c4ccccc34)n2Cc2ccccc2Cl)n(C)c1=O" : 60

Value of measured EC50 for the entry "Cn1c(=O)c2c(nc(NCCc3c[nH]c4ccccc34)n2CCF)n(C)c1=O" : 1390

Value of measured EC50 for the entry "Cn1c(=O)c2c(nc(NCCc3c[nH]c4ccccc34)n2Cc2ccc(F)c(F)c2)n(C)c1=O" : 142

Value of measured EC50 for the entry "Cn1c(=O)c2c(nc(NCCc3c[nH]c4ccccc34)n2Cc2ccc(Cl)cc2Cl)n(C)c1=O" : 64

Value of measured EC50 for the entry "COc1cccc(Cn2c(NCCc3c[nH]c4ccccc34)nc3c2c(=O)n(C)c(=O)n3C)c1" : 166

Value of measured EC50 for the entry "Cn1c(=O)c2c(nc(NCCc3c[nH]c4ccccc34)n2Cc2ccc(S(N)(=O)=O)cc2)n(C)c1=O" : 6640

* * *

Biological target: UniProt P34972
Sequence (P34972 whole entry): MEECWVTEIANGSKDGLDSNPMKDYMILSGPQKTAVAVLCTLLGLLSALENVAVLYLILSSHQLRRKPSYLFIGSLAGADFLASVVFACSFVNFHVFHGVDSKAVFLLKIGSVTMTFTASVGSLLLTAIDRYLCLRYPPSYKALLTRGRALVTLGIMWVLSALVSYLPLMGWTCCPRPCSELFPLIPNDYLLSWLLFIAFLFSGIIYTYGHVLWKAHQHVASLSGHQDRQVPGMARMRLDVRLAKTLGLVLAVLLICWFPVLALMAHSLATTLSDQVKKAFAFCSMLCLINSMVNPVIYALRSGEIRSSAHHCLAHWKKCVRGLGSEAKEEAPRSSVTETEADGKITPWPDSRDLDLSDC
MEASURED_PARAMETER: Ki (µM)
Value expressed in µM; do not type the unit.

Cn1c(=O)c2c(nc(NCCc3c[nH]c4ccccc34)n2Cc2cccc(Br)c2)n(C)c1=O = 0.344

Test item "CC(C)c1ccc(Cn2c(NCCc3c[nH]c4ccccc34)nc3c2c(=O)n(C)c(=O)n3C)cc1" ; UniProt P34972; reported Ki was 0.15

* * *

Biological target: N-arachidonyl glycine receptor (Homo sapiens)
Assay: Agonist activity at human GPR18-eYFP and Renilla luc expressed in CHO cells assessed as beta-arrestin2 recruitment by BRET/beta-arrestin2 enzyme complementation assay
MEASURED_PARAMETER: EC50
The answer should read as a number with its unit following.

Value of measured EC50 for the entry "Cn1c(=O)c2c(nc(NCCc3c[nH]c4ccccc34)n2Cc2ccc(Cl)cc2)n(C)c1=O" : 38 nM

* * *

Molecular target: N-arachidonyl glycine receptor (Homo sapiens)
Sequence (Q14330 whole entry): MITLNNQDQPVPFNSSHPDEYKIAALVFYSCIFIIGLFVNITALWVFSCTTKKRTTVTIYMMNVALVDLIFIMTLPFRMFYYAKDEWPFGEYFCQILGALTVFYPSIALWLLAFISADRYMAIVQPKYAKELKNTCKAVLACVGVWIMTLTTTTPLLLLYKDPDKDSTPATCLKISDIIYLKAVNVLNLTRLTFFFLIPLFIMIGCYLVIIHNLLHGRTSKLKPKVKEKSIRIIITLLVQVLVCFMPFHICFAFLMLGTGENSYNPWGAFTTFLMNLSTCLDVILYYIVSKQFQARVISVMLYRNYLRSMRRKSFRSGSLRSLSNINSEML
Assay: Agonist activity at human GPR18 expressed in CHO cells assessed as activation by measuring beta-arrestin2 recruitment incubated for 90 mins by luminescence based assay
Type: functional, cell-based
Recorded log10(EC50) by entry
Answers are given as log10 of EC50 in nM.

Worked examples follow.
Cn1c(=O)c2c(nc(NCCc3c[nH]c4ccccc34)n2Cc2ccc(C(F)(F)F)cc2)n(C)c1=O = 2.13
CCCCCc1cc(O)c2c(c1)OC(C)(C)[C@@H]1CCC(C)=C[C@@H]21 = 3.53
Cn1c(=O)c2c(nc(NCCc3c[nH]c4ccccc34)n2Cc2ccc(C(N)=O)cc2)n(C)c1=O = 3.56
Cn1c(=O)c2c(nc(NCCc3c[nH]c4ccccc34)n2Cc2ccc(Cl)cc2)n(CC#N)c1=O = 3.09
COC(=O)c1ccc(Cn2c(NCCc3c[nH]c4ccccc34)nc3c2c(=O)n(C)c(=O)n3C)cc1 = 2.67
Cn1c(=O)c2c(nc(NCCc3c[nH]c4ccccc34)n2Cc2ccc(F)cc2)n(C)c1=O = 1.73
Cn1c(=O)c2c(nc(NCCc3c[nH]c4ccccc34)n2Cc2ccccc2Br)n(C)c1=O = 2.28

Let us examine a further case.
Test item "Cc1ccc(Cn2c(NCCc3c[nH]c4ccccc34)nc3c2c(=O)n(C)c(=O)n3C)cc1" ; N-arachidonyl glycine receptor (Homo sapiens); reported log10(EC50) was 1.38

* * *

Target: N-arachidonyl glycine receptor (Homo sapiens)
Experiment: Antagonist activity at human GPR18 receptor expressed in CHO cells assessed as inhibition of THC-induced activation by measuring beta-arrestin2 recruitment
MEASURED_PARAMETER: IC50 (nM)
Value expressed in nM; do not type the unit.

Test item "O=C1/C(=C/c2cccc(OCCCCCCOc3ccc(Cl)cc3)c2)N=C2SCCCN12" ; N-arachidonyl glycine receptor (Homo sapiens); reported IC50 was 487
